Taken from PubChem BioAssay (NCI).

For each of the molecules below, state its TGI.
Tested on: CAKI-1 renal
PROTOCOL DETAILS: NCI tumour cell line growth inhibition, 48 h

Request: May I ask what TGI has been recorded for Nc1sccc1S(=O)(=O)c1ccsc1N ?
Response: > 100 µM

Request: Dear colleague, I am looking for the recorded TGI of the following molecule: O=[N+]([O-])c1nccn1CCCN=c1c2ccccc2n(O)c2ccccc12
Response: > 100 µM

Request: What value of TGI has been recorded for this entry: O=S1Cc2ccccc2CS1 (stereo not drawn)
Response: 31.1 µM

Request: Value lookup for TGI; key = NCCCCN
Response: 30.2 µM

Request: Requested field: TGI. Item: Cc1cc(C)nc(NC(=S)Nc2cccc(Cl)c2)c1
Response: > 86.5 µM

Request: For the molecule Cn1c(=O)c(Sc2ccccc2F)cc2cnc(NC3CCOCC3)nc21 , what TGI is on record?
Response: > 25 µM

Request: I am curious: what TGI value has been reported for COc1ccccc1/C=C1\CCC(CN(C)C)C1=O (stereo not drawn) ?
Response: 12 µM

Request: Recorded TGI for Cc1ccc2c(=O)c(-c3nnsn3)c[nH]c2n1 , please?
Response: > 100 µM

Request: Please report the recorded TGI for Nc1nn(C(=O)Nc2ccc(Cc3ccccc3)cc2)c2ccc(Cl)cc12 .
Response: > 100 µM

Request: Value lookup for TGI; key = C[C@@]12CCC[C@@](C)(C(=O)O)C1CC[C@]13C=C(CO)[C@](O)(CCC12)C3 (stereo partly drawn)
Response: > 100 µM

Request: Which TGI value belongs to COc1cccc(N=N/C(=N/NC(=O)c2cc(Cl)ccc2O)c2ccc(N(CCC#N)CCC#N)cc2C)c1 ?
Response: > 100 µM

Request: Tell me the measured TGI of OCC1OC(n2ccc3cnccc32)CC1O (stereo not drawn) , please.
Response: > 100 µM

Request: Looking for the measured TGI of CC(C)(C)OC(=O)N1C[C@H](CC(=O)OCc2ccccc2)C[C@H]1C(=O)OCC(Cl)(Cl)Cl , can you help?
Response: > 50 µM

----------
Tested on: RXF 393 renal
PROTOCOL DETAILS: NCI tumour cell line growth inhibition, 48 h
REPORTED METRIC: TGI

Request: State the recorded TGI for this entry: N#Cc1cc2c(n(C3OC(CO)C(O)C(O)C3O)c1=S)CCCCC2 (stereo not given)
Response: > 100 µM

Request: # TGI lookup, item N#CC(NC12CC3CC(CC(C3)C1)C2)c1ccccc1 (stereo not given)
Response: > 100 µM

Request: If you can, please state the reported TGI value of O=CC(O)C(O)C(O)COc1cc(CO)cc2c1C(=O)c1ccccc1C2=O (stereo not given) .
Response: > 100 µM

Request: Recorded TGI of CCOC(=O)CSc1[nH]c2nc(C)nc(Cl)c2c1C#N , please.
Response: > 10 µM

Request: TGI for Cc1cc(O)c2c(c1O)C(=O)c1c(O)ccc(O)c1C2=O ?
Response: > 100 µM

----------
Test system: COLO 205 colon
PROTOCOL DETAILS: NCI tumour cell line growth inhibition, 48 h
Assign TGI to each entry below.

Request: Quick one: TGI of Cc1cc(NC(=O)NC(=O)c2ccccc2[N+](=O)[O-])ccc1Oc1ncc(Cl)cn1 ?
Response: > 20 µM

Request: # get_value(readout='TGI', item= COC(=O)C1=C2C3=C(C(=O)c4ccccc4C3=O)N(Cc3ccccc3)C2(OC(C)=O)C=CC1=O (stereo not given) )
Response: > 100 µM

Request: Returns the measured TGI for the input compound. Input: Nc1ccc(S(=O)(=O)Nc2nc3ccccc3nc2Nc2ccc(S(N)(=O)=O)cc2)cc1
Response: > 100 µM

Request: Look up TGI: CSc1nc2nc(C)c(C)nc2c(=O)[nH]1
Response: > 100 µM

Request: May I ask what TGI has been recorded for CC(=O)NC(ON1C(=O)COc2ccccc21)C(Cl)(Cl)Cl (stereo not given) ?
Response: > 100 µM

----------
Tested on: NCI/ADR-RES ovarian
PROTOCOL DETAILS: NCI tumour cell line growth inhibition, 48 h
REPORTED METRIC: TGI (µM)
The figure you give is taken to be in µM; do not add the unit.

Request: Param item = O=c1oc2c(Br)c(O)c(Br)cc2c2ccccc12 ; retrieve measured TGI.
Response: 78.1

Request: Any idea what TGI was measured for Oc1c(Cl)cc(C(c2cc(Cl)c(O)c(Cl)c2)C(c2cc(Cl)c(O)c(Cl)c2)c2cc(Cl)c(O)c(Cl)c2)cc1Cl ?
Response: 38

----------
Test system: A549 NSCLC
PROTOCOL DETAILS: NCI tumour cell line growth inhibition, 48 h
REPORTED METRIC: TGI

Request: Look up TGI: COC(OC)C1(c2ccccc2)Oc2ccccc2C1=O (stereo not drawn)
Response: > 100 µM

Request: Recorded TGI of CCN(CC)CCC(=O)c1ccc(Oc2ccc(C)cc2)cc1 , please.
Response: > 100 µM

Request: I have this molecule here, COC1=C(C)C(=O)C2C(C1=O)C(c1ccc(OC)c(OC)c1)[C@H]2C (stereo partly drawn) , and I need its recorded TGI.
Response: > 100 µM

----------
Test system: HL-60(TB) leukemia
PROTOCOL DETAILS: NCI tumour cell line growth inhibition, 48 h
REPORTED METRIC: TGI

Request: Param readout= TGI; system= HL-60(TB) leukemia; entry= C/C(Sc1ccccc1)=C1/CCCN(Cc2ccccc2)C1 ; returns value.
Response: 32.6 µM

Request: Under HL-60(TB) leukemia: TGI value of Cc1cc(C)nc(NC(=S)Nc2cccc(Cl)c2)c1 ?
Response: > 100 µM

Request: Tell me reported TGI for COc1cc(C2=Nc3c/c(=C\c4c(O)[nH]c5ccc(Cl)cc45)ccc3=N2)cc(OC)c1OC , tested with HL-60(TB) leukemia.
Response: 14.6 µM

Request: Record O=C(/C=C/c1ccccc1Cl)c1ccc(O)cc1 : what is its TGI with HL-60(TB) leukemia?
Response: > 23.2 µM

Request: # returns recorded TGI (system: HL-60(TB) leukemia) for NCC(=O)Nc1ccc(-n2nc(C(F)(F)F)cc2-c2ccc3c(ccc4ccccc43)c2)cc1
Response: 3.42 µM

Request: Item: O=C(O[C@H]1CN[C@H](C#Cc2cc3ncnc(Nc4ccc(Cc5ccccc5)cc4)c3s2)C1)N1CCOCC1 Test system: HL-60(TB) leukemia Read-out: TGI Value: ?
Response: 17.1 µM

Request: For the record CCNC(=O)Nc1ccc(-c2nc3c(c(N4CCOC[C@@H]4C)n2)CCN(C2COC2)C3)cc1 , what value of TGI is listed for HL-60(TB) leukemia?
Response: > 100 µM

Request: For HL-60(TB) leukemia, provide TGI of CC(=O)c1cc2c3c(c1)c1cc4c(cc1c(=O)n3CC2)OCO4 please.
Response: > 100 µM

Request: Find the measured TGI: item OCC1C(O)C(O)[C@@H]2SCCN12 (some centres not stated) , target or system HL-60(TB) leukemia.
Response: > 100 µM

Request: Lab request: please report TGI under test system HL-60(TB) leukemia for COC(=O)c1c(O)ccc2c1c1c(n2Cc2ccccn2)C(=O)c2ccccc2C1
Response: > 100 µM

Request: Checklist item: TGI tested on HL-60(TB) leukemia, entry CC(C)c1ccc2c(c1)[C@@]1(C)CC[C@H](C)C(C)(C)C1CC2 (some centres not stated) , value?
Response: 63.6 µM

Request: Hello, I am looking for reported TGI with HL-60(TB) leukemia for CCOC(=O)C(C)OC(=O)c1ccc(C)cc1 (configuration not stated) . Could you help?
Response: > 100 µM

Request: Under HL-60(TB) leukemia: TGI value of CSc1nc2nc(C)c(C)nc2c(=O)[nH]1 ?
Response: > 100 µM

Request: What reported TGI corresponds to CCOC(=O)c1c(NS(=O)(=O)c2ccc(Br)cc2)sc2c1CCCC2 on HL-60(TB) leukemia?
Response: > 100 µM

Request: # returns recorded TGI (system: HL-60(TB) leukemia) for CCCCCCOC(=O)C(N)Cc1ccc(OC)cc1 (configuration not stated)
Response: > 100 µM

Request: Lab note: need TGI with HL-60(TB) leukemia for entry CCOc1cc(NC(C)=O)ccc1C(=O)N/N=C/c1ccco1 , please look it up.
Response: > 100 µM

Request: Value wanted: TGI (HL-60(TB) leukemia) of entry O=C(O)C(F)(OC(F)(F)C(F)(F)C(F)(F)F)C(F)(F)F (configuration not stated)
Response: > 100 µM

Request: # get_value(readout= TGI, system= HL-60(TB) leukemia) for CSc1nc(C)cc(N(C)c2ccccc2)n1
Response: 61.9 µM

Request: Give recorded TGI with HL-60(TB) leukemia for the following molecule: Cn1c2c(c3c(=O)[nH]ncc31)CCc1ccccc1-2
Response: 60.6 µM

Request: Kindly state the measured TGI obtained for CCOc1ccc(/C=N/Nc2cc(C)nc3ccc(Cl)cc23)cc1 with HL-60(TB) leukemia.
Response: 3.73 µM

Request: Under HL-60(TB) leukemia: TGI value of COC1OC(COCc2ccc(Cl)cc2)C(OCc2ccc(Cl)cc2)C1O (configuration not stated) ?
Response: 32.2 µM

Request: Could you share what TGI was measured for CCc1ccc(/C(C#N)=C/C=C/c2ccccc2)cc1 , tested on HL-60(TB) leukemia?
Response: > 62.9 µM

Request: What value of TGI on HL-60(TB) leukemia does O=C(CSc1nc2ccc(Cl)cc2c(=O)n1-c1ccccc1)N=Nc1c(O)[nH]c2ccc(F)cc12 have?
Response: 7.25 µM

Request: Test system HL-60(TB) leukemia; read-out TGI; what value for Nc1nn(C(=O)Nc2ccc(Cc3ccccc3)cc2)c2ccc(Cl)cc12 ?
Response: 44.6 µM

Request: Value wanted: TGI (HL-60(TB) leukemia) of entry Nn1c(-c2ccccc2Nc2ccccc2-c2n[nH]c(=S)n2N)n[nH]c1=S
Response: > 50 µM

Request: What TGI appears in the records for this molecule with HL-60(TB) leukemia? COC(=O)/C=C1/OC(c2ccc(Br)cc2)=C(Br)C1=O
Response: 7.87 µM

Request: Entry Nc1ccc(S(=O)(=O)Nc2nc3ccccc3nc2Nc2ccc(S(N)(=O)=O)cc2)cc1 , system HL-60(TB) leukemia: what TGI was measured?
Response: 63.2 µM

Request: Please state recorded TGI (tested on HL-60(TB) leukemia) of C/C(=N/NC(=S)N1CCCCCC1)c1ccccc1O
Response: 7.8 µM

Request: Query TGI on HL-60(TB) leukemia for CCOC(=O)CSc1[nH]c2nc(C)nc(Cl)c2c1C#N
Response: > 10 µM

Request: HL-60(TB) leukemia / TGI / O=C1CCCCC1C1(O)C(=O)Nc2cc(F)ccc21 (configuration not stated) : value?
Response: > 100 µM

Request: Fill in the recorded TGI for this molecule, with HL-60(TB) leukemia as test system: CC(=O)O[C@@]12[C@@H]3O[C@@]4(O)C[C@]5(C)[C@H]6C[C@@](C(C)C)(O[C@H]5c5ccoc5)O[C@H]1[C@]6(C4)O[C@]2(O)C(C)=CC3(C)C
Response: > 100 µM

Request: Hi! What's the reported TGI for Cc1nc2ccc(N=Nc3c(O)ccc4ccccc34)cc2[nH]1 on HL-60(TB) leukemia?
Response: 46.8 µM
